Data credit: patent US20250011330A1

Biological target: TDP1 (Homo sapiens (Human))
Assay: TDP1 gel-based in vitro fluorescence assay
Format: biochemical
Details: Table 7, ratio of IC50 TDP2 to TDP1
Readings of FC (fold change) for the listed compounds
readout.name: FC (fold change)

[[record]]
smiles_record = "O=C(O)c1ccc(Nc2c(-c3ccc(CO/N=C\\c4ccc(-c5cnccn5)cc4)cc3)nc3cc(-c4ccccc4)ccn23)cc1"
target_system = "TDP1 (Homo sapiens (Human))"
readout_name = "FC (fold change)"
result = ">2"

[[record]]
smiles_record = "O=C(O)c1ccc(Nc2c(-c3ccc(CO/N=C/c4ccc(-c5ccccc5)cc4)cc3)nc3cc(-c4ccccc4)ccn23)cc1"
target_system = "TDP1 (Homo sapiens (Human))"
readout_name = "FC (fold change)"
result = ">2"

[[record]]
smiles_record = "N#Cc1ccc(-c2ccc(/C=N/OCc3ccc(-c4nc5cc(-c6ccccc6)ccn5c4Nc4ccc(C(=O)O)cc4)cc3)cc2)nc1"
target_system = "TDP1 (Homo sapiens (Human))"
readout_name = "FC (fold change)"
result = 74

[[record]]
smiles_record = "Cc1cncc(Oc2ccc(/C=N/OCc3ccc(-c4nc5cc(-c6ccccc6)ccn5c4Nc4ccc(C(=O)O)cc4)cc3)cc2)n1"
target_system = "TDP1 (Homo sapiens (Human))"
readout_name = "FC (fold change)"
result = ">1"

[[record]]
smiles_record = "N#Cc1ccc(-c2ccc(/C=N\\OCc3ccc4nc(-c5ccccc5)c(Nc5ccc(C(=O)O)cc5)n4c3)cc2)nc1"
target_system = "TDP1 (Homo sapiens (Human))"
readout_name = "FC (fold change)"
result = ">2"

[[record]]
smiles_record = "N#Cc1ccc(-c2ccc(/C=N/OCc3ccc4nc(-c5ccccc5)c(Nc5ccc(C(=O)O)cc5)n4c3)cc2)nc1"
target_system = "TDP1 (Homo sapiens (Human))"
readout_name = "FC (fold change)"
result = 4

[[record]]
smiles_record = "Cc1cncc(Oc2ccc(/C=N\\OCc3ccc(-c4nc5cc(-c6ccccc6)ccn5c4Nc4ccc(C(=O)O)cc4)cc3)cc2)n1"
target_system = "TDP1 (Homo sapiens (Human))"
readout_name = "FC (fold change)"
result = ">2"

[[record]]
smiles_record = "N#Cc1ccc(-c2ccc(/C=N\\OCc3ccc(-c4nc5cc(-c6ccccc6)ccn5c4Nc4ccc(C(=O)O)cc4)cc3)cc2)nc1"
target_system = "TDP1 (Homo sapiens (Human))"
readout_name = "FC (fold change)"
result = ">18"


* * *

Target: TDP1 (Homo sapiens (Human), UniProt Q9NUW8)
Sequence (Q9NUW8 whole entry): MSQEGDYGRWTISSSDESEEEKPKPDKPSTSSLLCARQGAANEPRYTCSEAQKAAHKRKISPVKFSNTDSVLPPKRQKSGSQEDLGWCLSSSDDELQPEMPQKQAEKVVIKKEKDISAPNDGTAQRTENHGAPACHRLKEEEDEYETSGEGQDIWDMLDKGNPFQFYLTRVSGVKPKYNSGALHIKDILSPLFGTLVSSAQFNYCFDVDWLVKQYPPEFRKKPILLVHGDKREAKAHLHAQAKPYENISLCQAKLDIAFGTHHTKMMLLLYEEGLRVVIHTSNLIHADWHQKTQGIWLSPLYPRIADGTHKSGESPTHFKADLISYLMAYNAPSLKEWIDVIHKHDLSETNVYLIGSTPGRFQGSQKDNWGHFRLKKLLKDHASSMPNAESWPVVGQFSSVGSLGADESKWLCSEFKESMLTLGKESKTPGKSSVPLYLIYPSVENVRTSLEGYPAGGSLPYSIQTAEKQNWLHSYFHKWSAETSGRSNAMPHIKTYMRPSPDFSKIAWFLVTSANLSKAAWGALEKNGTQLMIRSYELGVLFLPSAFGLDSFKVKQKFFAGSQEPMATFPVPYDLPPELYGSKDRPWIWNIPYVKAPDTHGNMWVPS
Test: TDP1 gel-based in vitro fluorescence assay
Assay type: biochemical
Conditions: Table 10, PROTACs; read-out: TDP1 IC50
pIC50: −log10 of the molar value.
readout.name: pIC50

[[record]]
compound = "Cc1ncsc1-c1ccc(CNC(=O)[C@@H]2C[C@@H](O)CN2C(=O)[C@@H](NC(=O)COCCOCCn2cc(-c3ccn4c(Nc5ccc(C(=O)O)cc5)c(-c5ccccc5)nc4c3)nn2)C(C)(C)C)cc1"
readout_name = "pIC50"
result = "< 4.00"

[[record]]
compound = "O=C1CCC(N2C(=O)c3cccc(NCCc4cn(Cc5ccc(-c6nc7cc(-c8ccccc8)ccn7c6Nc6ccc(C(=O)O)cc6)cc5)nn4)c3C2=O)C(=O)N1 (stereo not drawn)"
readout_name = "pIC50"
result = 4.91

[[record]]
compound = "O=C1CCC(N2C(=O)c3cccc(OCCOCCOCc4cn(Cc5ccc(-c6nc7cc(-c8ccccc8)ccn7c6Nc6ccc(C(=O)O)cc6)cc5)nn4)c3C2=O)C(=O)N1 (stereo not drawn)"
readout_name = "pIC50"
result = "< 4.00"

